- Assay Target: T1, STAG2(80–930) p.Ser327Asn–SCC1(281–394) complex (human, UniProt Q8N3U4-2 80-930; O60216 281-394, p.Ser327Asn)
- T1 construct: STAG2 (SA2), human, residues 80-930, patient germline variant p.Ser327Asn; SCC1 (RAD21), human, residues 281-394, in pGEX-6p1; The methods describe only the WT STAG2(80–930) vector; also called purified STAG2–SCC1 p.Ser327Asn; SA2–SCC1 p.Ser327Asn; source: E. coli, co-expressed, purified (Glutathione Sepharose 4B, PreScission cleavage, ion exchange, size exclusion)
- T1 sequence (looked up) 1: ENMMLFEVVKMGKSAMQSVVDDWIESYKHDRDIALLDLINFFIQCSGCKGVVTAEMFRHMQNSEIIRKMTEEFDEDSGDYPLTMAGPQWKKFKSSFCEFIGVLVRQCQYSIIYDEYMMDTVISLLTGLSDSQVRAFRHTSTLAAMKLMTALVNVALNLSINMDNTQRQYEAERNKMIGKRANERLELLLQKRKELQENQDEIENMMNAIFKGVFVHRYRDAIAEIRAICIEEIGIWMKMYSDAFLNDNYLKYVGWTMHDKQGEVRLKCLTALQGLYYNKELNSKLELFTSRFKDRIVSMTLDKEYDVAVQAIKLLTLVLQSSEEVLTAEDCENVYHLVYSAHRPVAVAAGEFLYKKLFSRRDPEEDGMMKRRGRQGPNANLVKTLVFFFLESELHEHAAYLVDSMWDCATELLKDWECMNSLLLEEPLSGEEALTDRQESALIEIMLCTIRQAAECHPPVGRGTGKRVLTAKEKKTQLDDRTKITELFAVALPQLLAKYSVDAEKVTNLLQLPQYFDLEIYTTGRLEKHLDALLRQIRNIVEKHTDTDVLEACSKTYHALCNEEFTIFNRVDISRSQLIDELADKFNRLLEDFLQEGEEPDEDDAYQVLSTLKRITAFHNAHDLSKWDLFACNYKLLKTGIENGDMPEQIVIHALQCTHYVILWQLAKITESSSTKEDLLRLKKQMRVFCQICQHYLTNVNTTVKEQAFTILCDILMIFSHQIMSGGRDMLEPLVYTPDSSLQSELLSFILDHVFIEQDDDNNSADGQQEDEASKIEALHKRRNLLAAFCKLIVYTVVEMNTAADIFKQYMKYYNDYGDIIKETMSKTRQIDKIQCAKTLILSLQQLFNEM
- T1 sequence (looked up) 2: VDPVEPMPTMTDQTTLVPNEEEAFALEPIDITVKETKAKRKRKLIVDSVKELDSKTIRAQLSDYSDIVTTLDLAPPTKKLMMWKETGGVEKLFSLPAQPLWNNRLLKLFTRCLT
- Assay Info: ITC; MicroCal iTC200, 20 °C; 20 uM STAG2(80–930)–SCC1(281–394) complex in the cell, titrated with 300 uM pSGO1 peptide; 20 mM Tris-HCl pH 7.7, 200 mM NaCl, 5 mM TCEP
- Measurement Parameters: both partners purified
Square brackets hold non-standard residues; d marks the D form. Ends that are not written are not given here. pT = C[C@@H](OP(=O)(O)O)[C@H](N)C(=O)O
Property Label: Kd (nM)
One number for each entry, in nM.

Which value of Kd has been reported for KSENKKTVPQKKMHKSVSSNDAYNFNLEEGVHL[pT]PFRQKVS (peptide, UniProt Q5FBB7 313-353, looked up, SGO1, human, residues 313-353; also called pSGO1; phospho-SGO1 peptide; source: synthetic peptide) [synthetic phospho-Thr346 SGO1 peptide containing residues 313–353 of human SGO1] in the records? 290
